Target: skeletal myofibrils (myosin ATPase activity)
Test: Skeletal Myofibril ATPase Assay
Settings: PK-LDH coupled, absorbance at 340 nm
pIC50: −log10 of the molar value.
Readout Type: pIC50

| Compound | pIC50 |
| --- | --- |
| CSCc1ncc(Cn2nc(-c3cnc(OCC(F)(F)F)nc3)ccc2=O)s1 [Compound 109] | > 5.00 |
| CCOc1ccc(-c2ccc(=O)n(Cc3nc(-c4ccccn4)no3)n2)cc1 [Compound 304] | > 5.00 |
| CCc1ncc(Cn2nc(-c3cnc(OCC(F)(F)F)nc3)ccc2=O)s1 [Compound 99] | > 5.00 |
| O=c1ccc(-c2cnc(OCC(F)(F)F)nc2)nn1Cc1cnccc1F [Compound 79] | > 5.00 |
| NC(=O)c1cc(Cn2nc(-c3cnc(OCC(F)(F)F)nc3)ccc2=O)on1 [Compound 32] | > 5.00 |

Q) Identify measured pIC50 corresponding to CCc1cncc(Cn2nc(-c3cnc(OCC(F)(F)F)nc3)ccc2=O)c1 [Compound 137]
A) > 5.00

Q) Answer with the recorded pIC50 of O=c1ccc(-c2cnc(OCC(F)(F)F)nc2)nn1Cc1nnc(-c2ccc(O)nc2)s1 [Compound 45] only.
A) 4.00 to 5.00

Q) Give the reported pIC50 for this compound. CSC(C)COc1ncc(-c2ccc(=O)n(Cc3cncc(F)c3)n2)cn1 (stereo not drawn) [Compound 123]
A) > 5.00

Q) State, in one line, measured pIC50 of Cc1nnc(Cn2nc(-c3ccc(OC(F)F)cc3)ccc2=O)[nH]1 [Compound 227]
A) < 4.00
